tested on: HOP-62; assay: NCI tumour cell line growth inhibition, 48 h
Active and inactive are the calls of the source. No stated cut-off is given here; in the data, active = GI50 up to about 1.1 µM and inactive = higher.
ASSAY_METRIC: GI50

Below are 4 molecules. Give each one its GI50.
1. CC1C/C(=C\c2ccc(O)c(O)c2)C(=O)/C(=C/c2ccc(O)c(O)c2)C1 (stereo unspecified)
2. Cc1cc(NC2=NCCO2)c2c(c1C)CCCC2
3. COC(=O)OCC1OC(N2C(=O)NC(=O)C(Br)C2N=[N+]=[N-])CC1OC(=O)OC (stereo unspecified)
4. CCOC(=O)N1CCc2cc(OC)c(OC)c3c2C1CC3=O (stereo unspecified)

["11.3 µM (inactive)", "13.3 µM (inactive)", "> 100 µM (inactive)", "> 100 µM (inactive)"]

Below are 2 molecules. Give each one its GI50.
1. Cc1ccc(C)c(NC(=O)CC/C(=N\NC(=O)C(N)=O)C(C)C(=O)c2ccc(O)cc2)c1 (stereo unspecified)
2. O=C1N2CCc3c([nH]c4ccccc34)C23CC2CCCCC12S3 (stereo unspecified)

> 100 µM (inactive)
> 100 µM (inactive)
